# testDetails: Evaluation of compound distribution in rat liver
# Assay type: in vivo
# conditionInfo: liver, male SD rats, single oral 3 mg/kg, 0.25 h after administration, read-out: Concentration in Liver
readoutKind: concentration at 0.25 h (ng/g)

# molecule, observedResult
data = [
    ("COc1ccccc1[C@H](Cn1c(=O)n([C@H]2C[C@@](C)(C(=O)O)C2)c(=O)c2c(C)c(-c3ncco3)sc21)OC1CCOCC1", 4830),
    ("COc1ccccc1C(Cn1c(=O)n(C2CC(C(=O)O)C2)c(=O)c2c(C)c(-c3ncco3)sc21)OC1CCOCC1 (stereo not drawn)", 4180),
    ("COc1ccccc1[C@H](Cn1c(=O)n(C(C)(C)C(=O)O)c(=O)c2c(C)c(-c3ncco3)sc21)OC1CCOCC1 [ND-630, reference compound]", 6070),
    ("COc1ccccc1C(Cn1c(=O)n(C2CN(C(C)=O)C2)c(=O)c2c(C)c(-c3ncco3)sc21)OC1CCOCC1 (stereo not drawn)", 1460),
    ("COc1ccccc1C(Cn1c(=O)n(-c2ccc(C(=O)O)cc2)c(=O)c2c(C)c(-c3ncco3)sc21)OC1CCOCC1 (stereo not drawn)", 3170),
    ("COc1ccccc1C(Cn1c(=O)n(-c2cccc(C(=O)O)c2)c(=O)c2c(C)c(-c3ncco3)sc21)OC1CCOCC1 (stereo not drawn)", 3200),
]

* * *

# targetDesc: ACC1 (Homo sapiens (Human), UniProt Q13085)
pIC50: −log10 of the molar value.
readoutKind: pIC50

# compound, observedResult
records = [
    ("COc1ccccc1C(Cn1c(=O)n(-c2cccc(C(=O)O)c2)c(=O)c2c(C)c(-c3ncco3)sc21)OC1CCOCC1 (stereo not shown) [Example 25]", 8.80),
    ("COc1ccccc1C(Cn1c(=O)n(C2CNC2)c(=O)c2c(C)c(-c3ncco3)sc21)OC1CCOCC1 (stereo not shown) [Example 6]", 8.55),
    ("COc1ccccc1C(Cn1c(=O)n(C2CN(C(C)=O)C2)c(=O)c2c(C)c(-c3ncco3)sc21)OC1CCOCC1 (stereo not shown) [Example 7]", 8.65),
    ("COc1ccccc1C(Cn1c(=O)n(C2CN(C(=O)N3CC(C)(C(=O)O)C3)C2)c(=O)c2c(C)c(-c3ncco3)sc21)OC1CCOCC1 (stereo not shown) [Example 15]", 8.06),
    ("COc1ccccc1[C@H](Cn1c(=O)n([C@H]2C[C@@](C)(C(=O)O)C2)c(=O)c2c(C)c(-c3ncco3)sc21)OC1CCOCC1 [Example 4]", 9.17),
    ("COc1ccccc1C(Cn1c(=O)n(C(C)(C)C(=O)O)c(=O)c2c(C)c(-c3ncco3)sc21)OC1CCN(C)CC1 (stereo not shown) [Example 19]", 7.63),
    ("COc1ccccc1C(Cn1c(=O)n(C2CN(C(=O)c3ncc[nH]3)C2)c(=O)c2c(C)c(-c3ncco3)sc21)OC1CCOCC1 (stereo not shown) [Example 14]", 8.77),
]

* * *

ACC2 (Homo sapiens (Human)) data, read-out IC50
readoutKind: IC50 (nM)

# compound, targetDesc, observedResult
data = [
    ("COc1ccccc1[C@H](Cn1c(=O)n([C@H]2C[C@@](C)(C(=O)O)C2)c(=O)c2c(C)c(-c3ncco3)sc21)OC1CCOCC1", "ACC2 (Homo sapiens (Human))", 3.16),
    ("COc1ccccc1C(Cn1c(=O)n(C2CN(C(=O)c3ccccn3)C2)c(=O)c2c(C)c(-c3ncco3)sc21)OC1CCOCC1 (stereo not shown)", "ACC2 (Homo sapiens (Human))", 11.6),
    ("COc1ccccc1C(Cn1c(=O)n(-c2cccc(C(=O)O)c2OC)c(=O)c2c(C)c(-c3ncco3)sc21)OC1CCOCC1 (stereo not shown)", "ACC2 (Homo sapiens (Human))", 14.1),
    ("COc1ccccc1C(Cn1c(=O)n(-c2cccc(C(=O)O)c2)c(=O)c2c(C)c(-c3ncco3)sc21)OC1CCOCC1 (stereo not shown)", "ACC2 (Homo sapiens (Human))", 7.57),
]

* * *

# testDetails: Evaluation of compound distribution in rat liver
# Assay type: in vivo
# conditionInfo: plasma, male SD rats, single oral 3 mg/kg, 0.25 h after administration, read-out: Concentration in Plasma
readoutKind: concentration at 0.25 h (ng/mL)

# molecule, observedResult
records = [
    ("COc1ccccc1C(Cn1c(=O)n(-c2ccc(C(=O)O)cc2)c(=O)c2c(C)c(-c3ncco3)sc21)OC1CCOCC1 (stereo not drawn)", 48.5),
    ("COc1ccccc1C(Cn1c(=O)n(C2CN(C(C)=O)C2)c(=O)c2c(C)c(-c3ncco3)sc21)OC1CCOCC1 (stereo not drawn)", 19.3),
    ("COc1ccccc1[C@H](Cn1c(=O)n(C(C)(C)C(=O)O)c(=O)c2c(C)c(-c3ncco3)sc21)OC1CCOCC1 [ND-630, reference compound]", 145),
]

* * *

pIC50: −log10 of the molar value.
ACC2 (Homo sapiens (Human), UniProt O00763) data, read-out pIC50
Sequence (O00763 whole entry): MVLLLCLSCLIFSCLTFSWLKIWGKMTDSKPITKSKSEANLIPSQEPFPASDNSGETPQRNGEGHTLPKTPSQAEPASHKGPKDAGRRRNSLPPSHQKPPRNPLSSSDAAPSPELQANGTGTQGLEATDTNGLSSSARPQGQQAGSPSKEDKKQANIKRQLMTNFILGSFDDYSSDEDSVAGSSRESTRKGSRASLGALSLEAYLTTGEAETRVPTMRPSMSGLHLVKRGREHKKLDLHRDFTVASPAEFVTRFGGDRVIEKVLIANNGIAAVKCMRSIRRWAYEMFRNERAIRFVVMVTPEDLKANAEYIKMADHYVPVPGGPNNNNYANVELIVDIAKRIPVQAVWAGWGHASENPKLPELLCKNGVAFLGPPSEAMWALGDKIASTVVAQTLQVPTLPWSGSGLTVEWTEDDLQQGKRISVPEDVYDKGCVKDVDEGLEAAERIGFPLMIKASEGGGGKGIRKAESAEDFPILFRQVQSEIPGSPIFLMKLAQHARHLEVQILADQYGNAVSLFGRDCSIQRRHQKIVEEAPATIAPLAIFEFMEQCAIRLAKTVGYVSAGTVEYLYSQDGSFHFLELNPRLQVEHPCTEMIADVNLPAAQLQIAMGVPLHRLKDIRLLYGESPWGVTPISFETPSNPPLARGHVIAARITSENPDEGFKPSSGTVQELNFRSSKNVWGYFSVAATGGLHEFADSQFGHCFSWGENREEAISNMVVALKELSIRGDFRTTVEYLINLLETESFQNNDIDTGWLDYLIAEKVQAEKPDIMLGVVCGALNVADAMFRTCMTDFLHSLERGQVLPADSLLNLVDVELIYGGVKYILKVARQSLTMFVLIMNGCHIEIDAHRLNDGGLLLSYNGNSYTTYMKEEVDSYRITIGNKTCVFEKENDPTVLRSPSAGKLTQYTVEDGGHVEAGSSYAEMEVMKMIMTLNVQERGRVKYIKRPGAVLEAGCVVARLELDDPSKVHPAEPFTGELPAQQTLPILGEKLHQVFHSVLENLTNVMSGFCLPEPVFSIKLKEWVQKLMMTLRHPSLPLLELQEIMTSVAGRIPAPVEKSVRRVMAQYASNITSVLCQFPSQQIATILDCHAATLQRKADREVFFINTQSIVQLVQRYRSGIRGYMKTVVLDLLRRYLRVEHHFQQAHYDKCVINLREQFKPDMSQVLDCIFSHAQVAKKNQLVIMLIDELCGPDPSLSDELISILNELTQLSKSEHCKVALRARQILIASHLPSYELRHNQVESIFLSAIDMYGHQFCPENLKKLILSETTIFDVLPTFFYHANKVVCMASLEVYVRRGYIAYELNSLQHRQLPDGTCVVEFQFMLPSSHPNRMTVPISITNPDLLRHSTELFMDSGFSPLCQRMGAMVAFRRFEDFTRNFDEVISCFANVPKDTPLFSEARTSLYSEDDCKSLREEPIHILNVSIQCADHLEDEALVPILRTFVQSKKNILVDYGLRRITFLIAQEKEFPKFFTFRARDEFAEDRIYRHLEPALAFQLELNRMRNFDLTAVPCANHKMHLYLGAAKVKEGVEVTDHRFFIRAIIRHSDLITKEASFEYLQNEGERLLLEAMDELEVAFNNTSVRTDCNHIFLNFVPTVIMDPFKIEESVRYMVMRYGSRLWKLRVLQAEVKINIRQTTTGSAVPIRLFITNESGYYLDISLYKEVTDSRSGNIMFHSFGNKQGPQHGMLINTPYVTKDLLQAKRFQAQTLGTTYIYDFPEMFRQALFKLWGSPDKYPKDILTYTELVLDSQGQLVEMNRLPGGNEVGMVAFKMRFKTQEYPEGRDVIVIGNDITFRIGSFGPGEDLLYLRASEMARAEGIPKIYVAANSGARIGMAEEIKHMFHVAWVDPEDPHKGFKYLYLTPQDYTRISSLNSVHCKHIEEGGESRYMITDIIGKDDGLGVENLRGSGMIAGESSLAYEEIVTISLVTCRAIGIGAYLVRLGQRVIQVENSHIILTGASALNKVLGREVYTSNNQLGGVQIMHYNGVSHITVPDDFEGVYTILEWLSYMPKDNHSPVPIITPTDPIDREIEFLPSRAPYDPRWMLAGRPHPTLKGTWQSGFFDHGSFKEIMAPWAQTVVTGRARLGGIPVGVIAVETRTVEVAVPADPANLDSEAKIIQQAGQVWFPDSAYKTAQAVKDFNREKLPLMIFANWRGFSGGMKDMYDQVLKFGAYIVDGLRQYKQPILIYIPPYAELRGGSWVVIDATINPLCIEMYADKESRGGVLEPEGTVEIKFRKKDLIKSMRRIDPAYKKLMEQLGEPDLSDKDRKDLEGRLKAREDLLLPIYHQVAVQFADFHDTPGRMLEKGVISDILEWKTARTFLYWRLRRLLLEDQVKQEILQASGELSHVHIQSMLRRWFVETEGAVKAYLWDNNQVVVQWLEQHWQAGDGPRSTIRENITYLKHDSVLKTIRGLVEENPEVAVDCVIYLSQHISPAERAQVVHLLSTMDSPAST

# compound, targetDesc, pIC50
records = [
    ("COc1ccccc1C(Cn1c(=O)n(C2CN(C(=O)C3CC3)C2)c(=O)c2c(C)c(-c3ncco3)sc21)OC1CCOCC1 (stereo not shown) [Example 8]", "ACC2 (Homo sapiens (Human), UniProt O00763)", 7.88),
    ("COc1ccccc1C(Cn1c(=O)n(C2CN(C(=O)N3CCOCC3)C2)c(=O)c2c(C)c(-c3ncco3)sc21)OC1CCOCC1 (stereo not shown) [Example 12]", "ACC2 (Homo sapiens (Human), UniProt O00763)", 8.09),
    ("COc1ccccc1C(Cn1c(=O)n(C2CN(S(C)(=O)=O)C2)c(=O)c2c(C)c(-c3ncco3)sc21)OC1CCOCC1 (stereo not shown) [Example 9]", "ACC2 (Homo sapiens (Human), UniProt O00763)", 8.10),
    ("COc1ccccc1C(Cn1c(=O)n(C2CN(C(=O)c3ncc[nH]3)C2)c(=O)c2c(C)c(-c3ncco3)sc21)OC1CCOCC1 (stereo not shown) [Example 14]", "ACC2 (Homo sapiens (Human), UniProt O00763)", 8.11),
]

* * *

# testDetails: Evaluation of compound distribution in rat liver
# Assay type: in vivo
# conditionInfo: liver/plasma, male SD rats, single oral 3 mg/kg, 0.25 h after administration, read-out: Liver/plasma distribution ratio
Recorded Kp at 0.25 h values for a group of molecules are listed next.

# molecule, Kp at 0.25 h
measured = [
    ("COc1ccccc1C(Cn1c(=O)n(-c2cccc(C(=O)O)c2)c(=O)c2c(C)c(-c3ncco3)sc21)OC1CCOCC1 (stereo not drawn) [Example 25]", 151),
    ("COc1ccccc1[C@H](Cn1c(=O)n([C@H]2C[C@@](C)(C(=O)O)C2)c(=O)c2c(C)c(-c3ncco3)sc21)OC1CCOCC1 [Example 4]", 67.1),
    ("COc1ccccc1C(Cn1c(=O)n(C2CN(C(C)=O)C2)c(=O)c2c(C)c(-c3ncco3)sc21)OC1CCOCC1 (stereo not drawn) [Example 7]", 75.5),
    ("COc1ccccc1C(Cn1c(=O)n(-c2ccc(C(=O)O)cc2)c(=O)c2c(C)c(-c3ncco3)sc21)OC1CCOCC1 (stereo not drawn) [Example 24]", 65.3),
    ("COc1ccccc1C(Cn1c(=O)n(C2CC(C(=O)O)C2)c(=O)c2c(C)c(-c3ncco3)sc21)OC1CCOCC1 (stereo not drawn) [Example 1]", 144),
    ("COc1ccccc1[C@H](Cn1c(=O)n(C(C)(C)C(=O)O)c(=O)c2c(C)c(-c3ncco3)sc21)OC1CCOCC1 [ND-630, reference compound]", 41.8),
]

* * *

Recorded IC50 values for a group of molecules are listed next.
# targetDesc: ACC1 (Homo sapiens (Human), UniProt Q13085)
readoutKind: IC50

# molecule, observedResult
measured = [
    ("COc1ccccc1C(Cn1c(=O)n(-c2ccc(C(=O)O)cc2OC)c(=O)c2c(C)c(-c3ncco3)sc21)OC1CCOCC1 (stereo not drawn) [Example 26]", "0.87 nM"),
    ("COc1ccccc1C(Cn1c(=O)n(C2CN(C(=O)c3ccccn3)C2)c(=O)c2c(C)c(-c3ncco3)sc21)OC1CCOCC1 (stereo not drawn) [Example 13]", "2.33 nM"),
    ("COc1ccccc1[C@H](Cn1c(=O)n([C@H]2C[C@](C)(C(=O)O)C2)c(=O)c2c(C)c(-c3ncco3)sc21)OC1CCOCC1 [Example 3]", "1 nM"),
    ("COc1ccccc1C(Cn1c(=O)n(C2CN(C(=O)N3CCOCC3)C2)c(=O)c2c(C)c(-c3ncco3)sc21)OC1CCOCC1 (stereo not drawn) [Example 12]", "1.22 nM"),
    ("COc1ccccc1C(Cn1c(=O)n(C2CC(C(=O)O)C2)c(=O)c2c(C)c(-c3ncco3)sc21)OC1CCOCC1 (stereo not drawn) [Example 1]", "0.69 nM"),
    ("COc1ccccc1C(Cn1c(=O)n(C(C)(C)C(=O)O)c(=O)c2c(C)c(-c3ncco3)sc21)OC1CCN(C(=O)C2CC2)CC1 (stereo not drawn) [Example 21]", "0.7 nM"),
    ("COc1ccccc1C(Cn1c(=O)n(C2CC(F)(F)C2)c(=O)c2c(C)c(-c3ncco3)sc21)OC1CCOCC1 (stereo not drawn) [Example 2]", "8.7 nM"),
    ("COc1ccccc1C(Cn1c(=O)n(-c2c(C)ccn3ccnc23)c(=O)c2c(C)c(-c3ncco3)sc21)OC1CCOCC1 (stereo not drawn) [Example 5]", "38.5 nM"),
    ("COc1ccccc1C(Cn1c(=O)n(C2CN(C(=O)N3CC(C)(O)C3)C2)c(=O)c2c(C)c(-c3ncco3)sc21)OC1CCOCC1 (stereo not drawn) [Example 16]", "6.89 nM"),
    ("COc1ccccc1C(Cn1c(=O)n(-c2ccc(C(=O)O)cc2)c(=O)c2c(C)c(-c3ncco3)sc21)OC1CCOCC1 (stereo not drawn) [Example 24]", "3.06 nM"),
    ("COc1ccccc1C(Cn1c(=O)n(C2CN(C(=O)c3ccccc3)C2)c(=O)c2c(C)c(-c3ncco3)sc21)OC1CCOCC1 (stereo not drawn) [Example 11]", "4.5 nM"),
    ("COc1ccccc1[C@H](Cn1c(=O)n(C(C)(C)C(=O)O)c(=O)c2c(C)c(-c3ncco3)sc21)OC1CCOCC1 [ND-630, reference compound]", "0.5 nM"),
]
